Data credit: the supplement of paper PMC10065799

Target: MERTK (UniProt Q12866)
Sequence (Q12866 whole entry, looked up): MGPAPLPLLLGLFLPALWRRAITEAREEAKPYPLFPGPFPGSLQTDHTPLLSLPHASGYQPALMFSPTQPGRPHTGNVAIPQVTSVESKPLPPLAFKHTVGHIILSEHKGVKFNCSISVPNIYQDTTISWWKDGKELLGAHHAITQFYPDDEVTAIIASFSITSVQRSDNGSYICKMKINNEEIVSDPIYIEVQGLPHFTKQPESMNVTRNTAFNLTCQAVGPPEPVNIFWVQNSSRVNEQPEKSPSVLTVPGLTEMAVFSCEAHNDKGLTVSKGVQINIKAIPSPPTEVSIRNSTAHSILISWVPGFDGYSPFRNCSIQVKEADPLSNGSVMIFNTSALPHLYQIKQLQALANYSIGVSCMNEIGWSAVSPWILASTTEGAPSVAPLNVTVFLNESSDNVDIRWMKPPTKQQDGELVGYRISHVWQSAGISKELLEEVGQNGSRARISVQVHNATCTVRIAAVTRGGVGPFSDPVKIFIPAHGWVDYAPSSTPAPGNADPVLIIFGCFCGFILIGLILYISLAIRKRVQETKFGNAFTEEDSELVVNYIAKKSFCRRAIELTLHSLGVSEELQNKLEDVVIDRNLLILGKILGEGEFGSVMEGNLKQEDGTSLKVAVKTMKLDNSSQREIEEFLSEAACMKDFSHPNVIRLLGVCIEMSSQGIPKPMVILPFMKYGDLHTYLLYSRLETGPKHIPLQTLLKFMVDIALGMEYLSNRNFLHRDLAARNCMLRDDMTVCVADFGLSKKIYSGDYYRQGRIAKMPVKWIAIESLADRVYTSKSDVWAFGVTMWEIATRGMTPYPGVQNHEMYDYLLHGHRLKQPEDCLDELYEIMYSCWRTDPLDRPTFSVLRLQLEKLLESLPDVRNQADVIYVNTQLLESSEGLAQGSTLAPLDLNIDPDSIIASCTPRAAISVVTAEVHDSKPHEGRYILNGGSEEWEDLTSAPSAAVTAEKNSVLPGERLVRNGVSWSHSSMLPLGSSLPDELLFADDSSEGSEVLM
Experiment: phosphorylation enrichment, bacterial display (enrichment ratio); higher = better substrate or ligand; peptides without Tyr show the background;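 note: 11-residue human phosphosite peptides and single-mutation variants displayed on the E. coli surface, counted by deep sequencing, each peptide's frequency after selection divided by its frequency in the unselected input library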;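 note: frequency after pTyr selection over input frequency; kinase dosed for 20-30% of maximal phosphorylation in three min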
The label depends only on phosphorylation enrichment: class 1 if it is at least 0.5, class 0 if it is smaller.

>  <sequence-record>
TIMTDYNPNFC [ALK_Y1092_YF]

>  <answer-label>
class 0

$$$$
>  <sequence-record>
EQKKYYNAMKK [SCN5A_Y1495]

>  <answer-label>
class 0

$$$$
>  <sequence-record>
LSVISYDLGMF [GBA3_Y174_M172I]

>  <answer-label>
class 0

$$$$
>  <sequence-record>
RNLDTYQKRLR [PLA2G2D_Y126]

>  <answer-label>
class 0

$$$$
>  <sequence-record>
DEDEEYEFMNR [ERBB3_Y1197_YF]

>  <answer-label>
class 1

$$$$
>  <sequence-record>
EQKKNYNAMKK [SCN5A_Y1495_Y1494N]

>  <answer-label>
class 0

$$$$
>  <sequence-record>
FRKNTYNVKST [SYNE2_Y575_I574T_YF]

>  <answer-label>
class 0

$$$$
>  <sequence-record>
KNEVFYQCPDQ [FBXO3_Y223]

>  <answer-label>
class 1

$$$$
>  <sequence-record>
WDLTDYLMKIL [ACTB_Y188_R183W]

>  <answer-label>
class 0

$$$$
>  <sequence-record>
GVASDYKCIDP [VPS13B_Y1991]

>  <answer-label>
class 0

$$$$
>  <sequence-record>
IMVFVYSRVFQ [ADRB2_Y219]

>  <answer-label>
class 0

$$$$
>  <sequence-record>
SWSTSYSGYRY [NKAPL_Y91]

>  <answer-label>
class 0

$$$$
>  <sequence-record>
ISKKRYAGLLF [POLD1_Y809]

>  <answer-label>
class 0

$$$$
>  <sequence-record>
GYITSYREEEQ

>  <answer-label>
class 0

$$$$
>  <sequence-record>
MEIHAYRKLLE [LMNA_Y376]

>  <answer-label>
class 0

$$$$
>  <sequence-record>
YHRQLYHKCTH [F12_Y58]

>  <answer-label>
class 1

$$$$
>  <sequence-record>
KMKGDYFCFLA [YWHAG_Y130_R132C_YF]

>  <answer-label>
class 1

$$$$

###

Target: Jak2 (UniProt O60674)
Sequence (O60674 whole entry, looked up): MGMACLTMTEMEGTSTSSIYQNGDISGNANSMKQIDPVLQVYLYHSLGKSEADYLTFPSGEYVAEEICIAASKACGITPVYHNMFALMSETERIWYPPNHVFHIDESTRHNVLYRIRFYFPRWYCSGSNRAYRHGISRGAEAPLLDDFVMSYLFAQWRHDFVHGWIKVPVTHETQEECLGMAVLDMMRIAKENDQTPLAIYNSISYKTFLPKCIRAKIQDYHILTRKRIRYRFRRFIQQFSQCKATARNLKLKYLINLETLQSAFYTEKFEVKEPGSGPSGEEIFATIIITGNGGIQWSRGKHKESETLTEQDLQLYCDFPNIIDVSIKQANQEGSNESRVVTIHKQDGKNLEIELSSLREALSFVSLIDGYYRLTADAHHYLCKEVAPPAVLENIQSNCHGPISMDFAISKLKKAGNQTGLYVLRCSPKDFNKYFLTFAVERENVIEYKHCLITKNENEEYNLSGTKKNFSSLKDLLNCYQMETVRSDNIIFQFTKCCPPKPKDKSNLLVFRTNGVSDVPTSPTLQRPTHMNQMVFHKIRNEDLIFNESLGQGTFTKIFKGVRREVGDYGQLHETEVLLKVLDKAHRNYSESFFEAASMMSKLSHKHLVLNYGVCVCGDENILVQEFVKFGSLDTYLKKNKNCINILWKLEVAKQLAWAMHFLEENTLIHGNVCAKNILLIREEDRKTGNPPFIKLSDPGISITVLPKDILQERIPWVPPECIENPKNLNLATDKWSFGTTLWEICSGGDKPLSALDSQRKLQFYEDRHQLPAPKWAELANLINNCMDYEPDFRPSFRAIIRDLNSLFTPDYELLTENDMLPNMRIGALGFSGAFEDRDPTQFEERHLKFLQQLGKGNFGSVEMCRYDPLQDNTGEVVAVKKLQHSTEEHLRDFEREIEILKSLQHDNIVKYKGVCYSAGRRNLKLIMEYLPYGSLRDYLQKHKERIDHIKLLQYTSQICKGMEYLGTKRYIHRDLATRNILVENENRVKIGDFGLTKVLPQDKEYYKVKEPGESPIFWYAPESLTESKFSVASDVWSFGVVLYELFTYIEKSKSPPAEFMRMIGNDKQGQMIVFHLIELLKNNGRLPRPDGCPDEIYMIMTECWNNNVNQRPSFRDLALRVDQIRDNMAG
Experiment: phosphorylation enrichment, bacterial display (enrichment ratio); higher = better substrate or ligand; peptides without Tyr show the background
Assign classes using reported phosphorylation enrichment values and the ranges low band (below 0.6), middle band (0.6 to below 1), high band (1 or more), please.

>  <sequence-record>
AGIENYKSRFG [NKD2_Y256_T257K]

>  <answer-label>
low band

$$$$
>  <sequence-record>
GDSVQYNRTTD [MLPH_Y454_P451S]

>  <answer-label>
middle band

$$$$
>  <sequence-record>
KRIETYFSKNY [PLP1_Y50_L46R]

>  <answer-label>
middle band

$$$$
>  <sequence-record>
YRIGPYQPSVP [MATR3_Y784_N787S]

>  <answer-label>
low band

$$$$
>  <sequence-record>
ARSHIYTLASC [MEFV_Y741_F743L]

>  <answer-label>
middle band

$$$$
>  <sequence-record>
SLFNGYVYSGV [NEIL3_Y71]

>  <answer-label>
high band

$$$$
>  <sequence-record>
KLSFSYGQALQ [ALDOB_Y302_R304Q]

>  <answer-label>
high band

$$$$
>  <sequence-record>
ANYTEYVATRW [CDKL5_Y171]

>  <answer-label>
middle band

$$$$
>  <sequence-record>
SSNLYYRCLTA [CNGA3_Y169_W171C]

>  <answer-label>
high band

$$$$
>  <sequence-record>
MEKEKYVSFIS [JMJD1C_Y596_YF]

>  <answer-label>
low band

$$$$
>  <sequence-record>
LQLLGDRPVYS [CHST6_Y358_Y358D]

>  <answer-label>
high band

$$$$

###

System: c-Src
Experiment: phosphorylation enrichment, bacterial display (enrichment ratio); higher = better substrate or ligand; peptides without Tyr show the background
Quick rule: phosphorylation enrichment of at least 0.4 means YES, below that means NO.

>  <sequence-record>
TRSYKYLLLSM [NF1_Y491]

>  <answer-label>
YES

$$$$
>  <sequence-record>
ALAAPYVLFPG [CEFIP_Y1332_YF]

>  <answer-label>
YES

$$$$
>  <sequence-record>
MKDLTYASLCF [ALOX5_Y446]

>  <answer-label>
YES

$$$$
>  <sequence-record>
MSNSAYVKREV [SCN1A_Y1694_F1692S]

>  <answer-label>
NO

$$$$
>  <sequence-record>
TKVVHYWKWIK [KLK2_Y249_R250W]

>  <answer-label>
YES

$$$$
>  <sequence-record>
SSSGAYGGGYG [KRT19_Y61]

>  <answer-label>
NO

$$$$
>  <sequence-record>
ACQGKYTPSGQ [ALDOA_Y343]

>  <answer-label>
YES

$$$$
>  <sequence-record>
ETEMLYGSARR [PRC1_Y464_P468R]

>  <answer-label>
YES

$$$$
>  <sequence-record>
EFRFIYMAVQH [PTPN11_Y515_Q510E_YF]

>  <answer-label>
YES

$$$$
>  <sequence-record>
PLCPDYQEPSR [DDR2_Y481_R478C]

>  <answer-label>
YES

$$$$
>  <sequence-record>
GARGRYVMGGP [TNK1_Y277]

>  <answer-label>
YES

$$$$
>  <sequence-record>
DAKTIYDFTDT [PDK1_Y136_A134T]

>  <answer-label>
YES

$$$$
>  <sequence-record>
LSEEKYELKEG [TREM1_Y29_T25S]

>  <answer-label>
YES

$$$$
>  <sequence-record>
LLIMEYAKYGS [RET_Y806_V804M]

>  <answer-label>
YES

$$$$
>  <sequence-record>
GADDSYYTARS [ZAP70_Y492]

>  <answer-label>
YES

$$$$
>  <sequence-record>
GDPTEYFSTAI [IGSF22_Y501_YF]

>  <answer-label>
YES

$$$$
>  <sequence-record>
PKEEPYKMQEK [SLC5A3_Y565_Q566K]

>  <answer-label>
YES

$$$$
>  <sequence-record>
GLALRCLSDHS [VWF_Y1584_Y1584C]

>  <answer-label>
YES

$$$$
>  <sequence-record>
ANNPLYKEATP [ITGB3_Y773_S778P]

>  <answer-label>
NO

$$$$

###

Tested on: c-Src
Assay: phosphorylation enrichment, bacterial display (enrichment ratio); higher = better substrate or ligand; peptides without Tyr show the background
measurement-label: phosphorylation enrichment

>  <sequence-record>
AKLKDYYIFNK [CCDC42_Y149]

>  <tested-target>
c-Src

>  <assay-result>
0.808

$$$$
>  <sequence-record>
TLLERYGMTKI [ACSF3_Y355_E359K]

>  <tested-target>
c-Src

>  <assay-result>
0.43

$$$$
>  <sequence-record>
MEKEKYVSFIS [JMJD1C_Y596_YF]

>  <tested-target>
c-Src

>  <assay-result>
0.486

$$$$
>  <sequence-record>
LVTAWYIGFLC [KCNQ2_Y237]

>  <tested-target>
c-Src

>  <assay-result>
1.15

$$$$
>  <sequence-record>
MDDPRYGVCPL [ZNF100_Y6_M8V]

>  <tested-target>
c-Src

>  <assay-result>
0.527

$$$$
>  <sequence-record>
HVKHNYECLVF [XRCC5_Y416_I412V_YF]

>  <tested-target>
c-Src

>  <assay-result>
0.754

$$$$
>  <sequence-record>
PTQLPYDHKWE [KIT_Y578]

>  <tested-target>
c-Src

>  <assay-result>
0.618

$$$$

###

Target: Fyn (UniProt P06241)
Sequence (P06241 whole entry, looked up): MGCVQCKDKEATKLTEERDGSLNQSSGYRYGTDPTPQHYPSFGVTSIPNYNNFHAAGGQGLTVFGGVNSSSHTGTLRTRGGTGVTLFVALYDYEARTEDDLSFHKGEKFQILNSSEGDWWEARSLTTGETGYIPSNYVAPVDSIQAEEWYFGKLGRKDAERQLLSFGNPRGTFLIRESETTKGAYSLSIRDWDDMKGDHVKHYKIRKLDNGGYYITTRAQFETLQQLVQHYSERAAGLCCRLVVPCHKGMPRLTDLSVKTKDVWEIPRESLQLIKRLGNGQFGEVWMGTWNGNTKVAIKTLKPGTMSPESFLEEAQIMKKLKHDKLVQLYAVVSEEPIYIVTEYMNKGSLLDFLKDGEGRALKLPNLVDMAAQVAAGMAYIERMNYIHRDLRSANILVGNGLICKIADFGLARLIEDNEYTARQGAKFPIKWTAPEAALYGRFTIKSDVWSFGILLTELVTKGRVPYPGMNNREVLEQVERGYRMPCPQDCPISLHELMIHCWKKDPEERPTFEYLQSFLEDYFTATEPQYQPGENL
Test: phosphorylation enrichment, bacterial display (enrichment ratio); higher = better substrate or ligand; peptides without Tyr show the background

>  <sequence-record>
FVSIVYNDSGE [TSC2_Y1650]

>  <phosphorylation enrichment>
0.596

$$$$
>  <sequence-record>
ECKLFYSRKEG [PTPN11_Y263_L262F]

>  <phosphorylation enrichment>
0.401

$$$$
>  <sequence-record>
KLSFSYGQALQ [ALDOB_Y302_R304Q]

>  <phosphorylation enrichment>
0.422

$$$$
>  <sequence-record>
ETAENYLGYTA [HSPA9_Y181_H184Y]

>  <phosphorylation enrichment>
0.563

$$$$
>  <sequence-record>
IRKKYYRAILE [CHD7_Y1218_Q1214R]

>  <phosphorylation enrichment>
0.405

$$$$
>  <sequence-record>
IMITDYLLLFR [INSR_Y87]

>  <phosphorylation enrichment>
0.467

$$$$

###

Test system: c-Abl (mouse)
Assay: phosphorylation enrichment, bacterial display (enrichment ratio); higher = better substrate or ligand; peptides without Tyr show the background

>  <sequence-record>
ECKLFYSRKEG [PTPN11_Y263_L262F]

>  <phosphorylation enrichment>
0.768

$$$$
>  <sequence-record>
RFQKLYLDRNL [IGFALS_Y248_L244F]

>  <phosphorylation enrichment>
0.486

$$$$
>  <sequence-record>
GLIPAYHRFIM [NMNAT1_Y64_V67F]

>  <phosphorylation enrichment>
0.619

$$$$
>  <sequence-record>
GRRNTYYASIA [ACADM_Y352]

>  <phosphorylation enrichment>
0.572

$$$$
>  <sequence-record>
RAHARYCADAR [ACOT4_Y52]

>  <phosphorylation enrichment>
0.689

$$$$
>  <sequence-record>
GKANRYFSPNF [PTEN_Y336_D331G]

>  <phosphorylation enrichment>
0.779

$$$$
>  <sequence-record>
TPRNTYKMTSV [MKI67_Y849_L854V]

>  <phosphorylation enrichment>
0.584

$$$$
>  <sequence-record>
EKKDLYKAGEQ [CFH_Y1008_V1007L]

>  <phosphorylation enrichment>
0.62

$$$$
>  <sequence-record>
SKHHLYSDLQT [PTCHD1_Y84_R82H]

>  <phosphorylation enrichment>
0.51

$$$$
>  <sequence-record>
GLVFLYVEKNQ [PRELP_Y156_M157V]

>  <phosphorylation enrichment>
0.759

$$$$
>  <sequence-record>
RAIELCNDKEK [OTULIN_Y244_Y244C]

>  <phosphorylation enrichment>
0.682

$$$$
>  <sequence-record>
ARAGEYGAEAL [HBA1_Y25_H21R]

>  <phosphorylation enrichment>
0.571

$$$$
>  <sequence-record>
RLLVVYTWTQR [HBB_Y36_P37T]

>  <phosphorylation enrichment>
0.862

$$$$
>  <sequence-record>
ARVANYQRDGP [CAT_Y386]

>  <phosphorylation enrichment>
0.496

$$$$
>  <sequence-record>
WRPFGYPHRRR [BCS1L_Y181_R183H]

>  <phosphorylation enrichment>
0.5

$$$$
>  <sequence-record>
IDGLEYLHSQS [STK11_Y166_G171S]

>  <phosphorylation enrichment>
0.616

$$$$
>  <sequence-record>
LSQAKYQIRFR [CRLF1_Y272_F268S_YF]

>  <phosphorylation enrichment>
0.597

$$$$
>  <sequence-record>
SEDSEYFRAFE [CASQ2_Y178_K180R_YF]

>  <phosphorylation enrichment>
1.31

$$$$
>  <sequence-record>
PLQKTYNYNML [SLC4A1_Y553_V557M]

>  <phosphorylation enrichment>
0.816

$$$$
>  <sequence-record>
QMVGMYASSSM [AVPR2_Y124_Y128S]

>  <phosphorylation enrichment>
0.807

$$$$
>  <sequence-record>
GGGMIYPLDLF

>  <phosphorylation enrichment>
0.804

$$$$
>  <sequence-record>
TLSGIYQFSIA [FOXL2_Y81_I84S_YF]

>  <phosphorylation enrichment>
1.27

$$$$
>  <sequence-record>
QYNPEYVQQAS [LRRC7_Y1058_H1054Y]

>  <phosphorylation enrichment>
1

$$$$
>  <sequence-record>
LDMSQYFRLFN [CPT2_Y217]

>  <phosphorylation enrichment>
0.92

$$$$
>  <sequence-record>
WAMPAYNRSKL [WWOX_Y293_L291P]

>  <phosphorylation enrichment>
0.339

$$$$
>  <sequence-record>
GLALRYLSDHS [VWF_Y1584]

>  <phosphorylation enrichment>
0.501

$$$$
>  <sequence-record>
ADRARYSAFGG [RBM4_Y361]

>  <phosphorylation enrichment>
0.546

$$$$
